Target: X-box-binding protein 1 (Homo sapiens) (UniProt P17861)
Sequence (P17861 whole entry, looked up): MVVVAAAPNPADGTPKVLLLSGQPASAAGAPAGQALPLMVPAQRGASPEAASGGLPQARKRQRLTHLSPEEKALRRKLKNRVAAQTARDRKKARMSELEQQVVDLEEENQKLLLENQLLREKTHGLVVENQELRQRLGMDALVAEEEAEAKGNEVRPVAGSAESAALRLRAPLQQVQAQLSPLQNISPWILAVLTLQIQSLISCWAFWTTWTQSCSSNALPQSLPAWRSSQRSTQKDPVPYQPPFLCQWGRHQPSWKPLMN
Assay: ATG_Xbp1_CIS: Attagene CIS-FACTORIAL HepG2 Assay for human X-box Binding Protein 1 (XBP1) (AID 2282972)
Settings: HepG2 XBP1 cis-element reporter, Attagene multiplex; actives raise or lower the signal
Calls of active or inactive are those of the source. How the source made its calls: active means hit-call score of the fitted dose curve at least 0.9, where 1 is the maximum; inactive means score below 0.9.
Labels: active, inactive

SMILES NOTATION: O=C(N[C@@H](Cc1ccccc1)[C@@H](O)C(=O)N1C[C@@H](O)[C@@H](O)C1)c1cc2cc(Cl)ccc2[nH]1
TARGET OR TEST SYSTEM: X-box-binding protein 1 (Homo sapiens) (UniProt P17861)
CLASS LABEL: active
--
SMILES NOTATION: CN1CCCC1=O
TARGET OR TEST SYSTEM: X-box-binding protein 1 (Homo sapiens) (UniProt P17861)
CLASS LABEL: inactive
--
SMILES NOTATION: O=C(OCCCCCOC(=O)c1ccccc1)c1ccccc1
TARGET OR TEST SYSTEM: X-box-binding protein 1 (Homo sapiens) (UniProt P17861)
CLASS LABEL: inactive
--
SMILES NOTATION: C[C@]12C=CC(=O)C=C1CC[C@@H]1[C@@H]2C(=O)C[C@@]2(C)[C@H]1CC[C@]2(O)C(=O)CO
TARGET OR TEST SYSTEM: X-box-binding protein 1 (Homo sapiens) (UniProt P17861)
CLASS LABEL: inactive
--
SMILES NOTATION: Nc1ccc(S(=O)(=O)c2ccc(N)cc2)cc1
TARGET OR TEST SYSTEM: X-box-binding protein 1 (Homo sapiens) (UniProt P17861)
CLASS LABEL: inactive
--
SMILES NOTATION: Cc1cc(=O)[nH]c(=S)[nH]1
TARGET OR TEST SYSTEM: X-box-binding protein 1 (Homo sapiens) (UniProt P17861)
CLASS LABEL: inactive
--
SMILES NOTATION: Cc1c(C(=O)O)c(O)cc2c1C(=O)c1c(O)c([C@@H]3O[C@H](CO)[C@@H](O)[C@H](O)[C@H]3O)c(O)c(O)c1C2=O
TARGET OR TEST SYSTEM: X-box-binding protein 1 (Homo sapiens) (UniProt P17861)
CLASS LABEL: inactive
--
SMILES NOTATION: CC(C)(C)c1cc(O)c(C(C)(C)C)cc1O
TARGET OR TEST SYSTEM: X-box-binding protein 1 (Homo sapiens) (UniProt P17861)
CLASS LABEL: active
--
SMILES NOTATION: Cc1ccc(C)c(O)c1C
TARGET OR TEST SYSTEM: X-box-binding protein 1 (Homo sapiens) (UniProt P17861)
CLASS LABEL: inactive
--
SMILES NOTATION: Nc1ccccc1N
TARGET OR TEST SYSTEM: X-box-binding protein 1 (Homo sapiens) (UniProt P17861)
CLASS LABEL: active
--
SMILES NOTATION: Cc1oc(-c2ccccc2)nc1CCOc1cccc2c1ccn2CCC(=O)O
TARGET OR TEST SYSTEM: X-box-binding protein 1 (Homo sapiens) (UniProt P17861)
CLASS LABEL: inactive
--
SMILES NOTATION: FC(F)(F)C(F)(F)C(F)(F)C(F)(F)C(F)(F)C(F)(F)CCI
TARGET OR TEST SYSTEM: X-box-binding protein 1 (Homo sapiens) (UniProt P17861)
CLASS LABEL: inactive
